src = ChEMBL document CHEMBL1152635

# assayed_target: DNA topoisomerase 2-alpha (Homo sapiens) (UniProt P11388)
# Sequence (P11388 whole entry): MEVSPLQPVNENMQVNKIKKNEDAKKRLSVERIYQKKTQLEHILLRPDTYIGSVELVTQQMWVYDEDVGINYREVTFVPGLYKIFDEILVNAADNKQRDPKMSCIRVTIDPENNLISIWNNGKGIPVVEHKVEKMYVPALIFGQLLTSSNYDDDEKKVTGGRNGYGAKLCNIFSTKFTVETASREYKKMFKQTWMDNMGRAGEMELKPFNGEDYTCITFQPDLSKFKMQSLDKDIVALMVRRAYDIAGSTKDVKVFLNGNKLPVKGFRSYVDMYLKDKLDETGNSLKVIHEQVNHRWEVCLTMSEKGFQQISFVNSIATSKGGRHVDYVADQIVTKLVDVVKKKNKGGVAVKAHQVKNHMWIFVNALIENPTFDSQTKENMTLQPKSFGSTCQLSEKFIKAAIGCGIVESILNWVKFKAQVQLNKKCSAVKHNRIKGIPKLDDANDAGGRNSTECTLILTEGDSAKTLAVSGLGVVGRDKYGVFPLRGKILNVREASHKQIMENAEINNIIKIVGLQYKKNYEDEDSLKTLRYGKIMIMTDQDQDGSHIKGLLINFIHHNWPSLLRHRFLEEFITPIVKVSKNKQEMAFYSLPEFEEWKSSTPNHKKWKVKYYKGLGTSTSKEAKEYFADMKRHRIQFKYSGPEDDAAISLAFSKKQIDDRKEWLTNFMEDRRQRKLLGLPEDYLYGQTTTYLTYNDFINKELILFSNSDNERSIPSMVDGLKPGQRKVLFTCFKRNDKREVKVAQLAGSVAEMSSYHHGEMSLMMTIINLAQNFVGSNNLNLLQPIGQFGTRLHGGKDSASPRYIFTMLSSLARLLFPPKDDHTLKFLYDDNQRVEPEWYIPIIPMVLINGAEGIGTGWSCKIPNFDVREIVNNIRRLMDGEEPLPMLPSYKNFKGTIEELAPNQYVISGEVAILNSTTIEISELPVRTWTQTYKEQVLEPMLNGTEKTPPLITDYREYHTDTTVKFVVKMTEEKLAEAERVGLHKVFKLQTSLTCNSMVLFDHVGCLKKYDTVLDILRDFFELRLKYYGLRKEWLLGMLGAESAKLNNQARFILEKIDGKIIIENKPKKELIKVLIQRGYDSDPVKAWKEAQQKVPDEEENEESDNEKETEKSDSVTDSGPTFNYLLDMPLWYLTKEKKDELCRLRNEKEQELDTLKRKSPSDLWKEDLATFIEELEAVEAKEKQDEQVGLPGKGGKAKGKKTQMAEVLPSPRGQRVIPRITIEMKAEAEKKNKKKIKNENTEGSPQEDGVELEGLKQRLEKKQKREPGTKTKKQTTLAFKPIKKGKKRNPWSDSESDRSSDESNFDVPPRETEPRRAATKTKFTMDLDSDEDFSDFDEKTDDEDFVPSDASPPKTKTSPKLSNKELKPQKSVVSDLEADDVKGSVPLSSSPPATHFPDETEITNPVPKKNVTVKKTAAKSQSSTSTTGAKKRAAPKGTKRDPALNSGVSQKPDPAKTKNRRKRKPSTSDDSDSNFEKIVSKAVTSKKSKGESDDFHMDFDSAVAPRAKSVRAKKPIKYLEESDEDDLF
# assay_summary: Inhibition of human topoisomerase 2alpha-mediated relaxation of double-stranded pRYG DNA at 100 uM by agarose gel electrophoresis
The source made the active and inactive calls. No cut-off for these calls is given here.
Outcomes: 1.0 (active), 0.0 (inactive)

molecule="COc1ccc2c(c1)C(=O)C1=C(C[C@H](CC(=O)O)O[C@@H]1C)C2=O (racemic)" discrete_label=1.0
molecule=C[C@H]1CC2=C(C(=O)c3c(O)cc(O)cc3C2=O)[C@H](O)O1 discrete_label=0.0
molecule=CC(C)Oc1cc(OC(C)C)c2c(c1)C(=O)C1=C(CO[C@@H](C)C1)C2=O discrete_label=1.0
molecule=COc1cccc2c1C(=O)C1=C(C[C@H](C)O[C@@H]1C)C2=O discrete_label=0.0
